system-under-test: Prostaglandin G/H synthase 1 (Homo sapiens); note: assay procedure not described here
Sequence (P23219 whole entry): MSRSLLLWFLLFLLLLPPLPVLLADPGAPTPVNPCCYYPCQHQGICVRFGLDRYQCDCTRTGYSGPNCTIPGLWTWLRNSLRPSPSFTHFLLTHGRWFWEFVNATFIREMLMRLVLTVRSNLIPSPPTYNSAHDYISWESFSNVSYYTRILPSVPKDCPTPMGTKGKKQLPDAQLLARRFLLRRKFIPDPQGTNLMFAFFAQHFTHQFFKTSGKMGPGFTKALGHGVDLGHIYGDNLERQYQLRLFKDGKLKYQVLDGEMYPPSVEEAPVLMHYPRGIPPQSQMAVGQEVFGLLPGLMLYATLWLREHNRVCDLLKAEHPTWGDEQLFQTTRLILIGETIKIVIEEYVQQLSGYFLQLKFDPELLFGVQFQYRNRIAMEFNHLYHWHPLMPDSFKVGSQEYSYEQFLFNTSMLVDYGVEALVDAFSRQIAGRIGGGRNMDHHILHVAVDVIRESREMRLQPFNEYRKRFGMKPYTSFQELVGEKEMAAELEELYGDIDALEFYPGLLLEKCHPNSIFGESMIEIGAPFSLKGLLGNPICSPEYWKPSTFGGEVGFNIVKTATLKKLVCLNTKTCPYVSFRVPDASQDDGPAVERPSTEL
Format: functional
result-type: AC50

molecule: OC[C@H]1O[C@@H](c2ccc(F)c(Cc3cc4ccccc4s3)c2)[C@H](O)[C@@H](O)[C@@H]1O
system-under-test: Prostaglandin G/H synthase 1 (Homo sapiens); note: assay procedure not described here
assay-value: > 30 µM
--
molecule: C[C@@H]1C[C@H]2[C@@H]3CCC4=CC(=O)C=C[C@]4(C)[C@@]3(Cl)[C@@H](O)C[C@]2(C)[C@@]1(OC(=O)c1ccco1)C(=O)CCl [MOMETASONE FUROATE]
system-under-test: Prostaglandin G/H synthase 1 (Homo sapiens); note: assay procedure not described here
assay-value: > 30 µM
--
molecule: CC(CN1CC(=O)NC(=O)C1)N1CC(=O)NC(=O)C1 (stereo not drawn)
system-under-test: Prostaglandin G/H synthase 1 (Homo sapiens); note: assay procedure not described here
assay-value: 20.4 µM
--
molecule: CCN(CCCc1ccccc1)CCCc1ccccc1
system-under-test: Prostaglandin G/H synthase 1 (Homo sapiens); note: assay procedure not described here
assay-value: > 30 µM
--
molecule: OC[C@H]1O[C@@](CO)(O[C@H]2O[C@H](CO)[C@@H](O)[C@H](O)[C@H]2O)[C@@H](O)[C@@H]1O
system-under-test: Prostaglandin G/H synthase 1 (Homo sapiens); note: assay procedure not described here
assay-value: > 30 µM
--
molecule: CC(C)(C)NC[C@H](O)COc1cccc2c1CCCC2=O
system-under-test: Prostaglandin G/H synthase 1 (Homo sapiens); note: assay procedure not described here
assay-value: > 30 µM
--
molecule: CCC(=O)O[C@]1(C(=O)SCF)[C@H](C)C[C@H]2[C@@H]3C[C@H](F)C4=CC(=O)C=C[C@]4(C)[C@@]3(F)[C@@H](O)C[C@@]21C [FLUTICASONE PROPIONATE]
system-under-test: Prostaglandin G/H synthase 1 (Homo sapiens); note: assay procedure not described here
assay-value: > 30 µM
--
molecule: C[C@H](Cc1cc2c(c(C(N)=O)c1)N(CCCO)CC2)NCCOc1ccccc1OCC(F)(F)F
system-under-test: Prostaglandin G/H synthase 1 (Homo sapiens); note: assay procedure not described here
assay-value: 15 µM
